# Cell Counts (Curve Bottom) values compiled below
targetOrTestSystem: α5β1 integrin on U87MG cells (human, UniProt P08648 42-1049; P05556 21-798)
Sequence (P08648 42-1049 limits assumed, chain 1 of 2): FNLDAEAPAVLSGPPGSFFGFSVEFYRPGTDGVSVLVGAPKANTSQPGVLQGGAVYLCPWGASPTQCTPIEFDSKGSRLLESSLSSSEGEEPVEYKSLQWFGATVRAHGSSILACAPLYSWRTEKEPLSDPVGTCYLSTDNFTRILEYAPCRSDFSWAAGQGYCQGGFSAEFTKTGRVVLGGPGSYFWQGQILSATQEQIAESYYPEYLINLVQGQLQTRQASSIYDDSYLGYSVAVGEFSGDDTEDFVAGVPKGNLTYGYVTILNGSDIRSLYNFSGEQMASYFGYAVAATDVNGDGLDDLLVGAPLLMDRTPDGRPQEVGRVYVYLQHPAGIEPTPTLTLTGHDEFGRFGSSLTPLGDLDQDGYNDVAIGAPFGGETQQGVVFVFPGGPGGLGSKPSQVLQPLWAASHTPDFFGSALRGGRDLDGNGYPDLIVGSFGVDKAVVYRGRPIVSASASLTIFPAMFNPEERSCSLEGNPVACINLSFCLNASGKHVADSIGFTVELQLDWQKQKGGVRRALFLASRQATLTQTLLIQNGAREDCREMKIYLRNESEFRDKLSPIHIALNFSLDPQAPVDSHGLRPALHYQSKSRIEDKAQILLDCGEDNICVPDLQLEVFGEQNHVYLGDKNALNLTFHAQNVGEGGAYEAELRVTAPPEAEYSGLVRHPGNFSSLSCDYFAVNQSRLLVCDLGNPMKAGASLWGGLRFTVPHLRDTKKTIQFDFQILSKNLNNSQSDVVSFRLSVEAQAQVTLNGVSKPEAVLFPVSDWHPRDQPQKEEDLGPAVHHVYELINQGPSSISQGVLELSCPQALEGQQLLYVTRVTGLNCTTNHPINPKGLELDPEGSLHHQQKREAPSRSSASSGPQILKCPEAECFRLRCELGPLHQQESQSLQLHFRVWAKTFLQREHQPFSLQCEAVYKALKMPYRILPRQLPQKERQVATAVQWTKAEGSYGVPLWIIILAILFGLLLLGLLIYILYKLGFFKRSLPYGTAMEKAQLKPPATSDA
Sequence (P05556 21-798 limits assumed, chain 2 of 2): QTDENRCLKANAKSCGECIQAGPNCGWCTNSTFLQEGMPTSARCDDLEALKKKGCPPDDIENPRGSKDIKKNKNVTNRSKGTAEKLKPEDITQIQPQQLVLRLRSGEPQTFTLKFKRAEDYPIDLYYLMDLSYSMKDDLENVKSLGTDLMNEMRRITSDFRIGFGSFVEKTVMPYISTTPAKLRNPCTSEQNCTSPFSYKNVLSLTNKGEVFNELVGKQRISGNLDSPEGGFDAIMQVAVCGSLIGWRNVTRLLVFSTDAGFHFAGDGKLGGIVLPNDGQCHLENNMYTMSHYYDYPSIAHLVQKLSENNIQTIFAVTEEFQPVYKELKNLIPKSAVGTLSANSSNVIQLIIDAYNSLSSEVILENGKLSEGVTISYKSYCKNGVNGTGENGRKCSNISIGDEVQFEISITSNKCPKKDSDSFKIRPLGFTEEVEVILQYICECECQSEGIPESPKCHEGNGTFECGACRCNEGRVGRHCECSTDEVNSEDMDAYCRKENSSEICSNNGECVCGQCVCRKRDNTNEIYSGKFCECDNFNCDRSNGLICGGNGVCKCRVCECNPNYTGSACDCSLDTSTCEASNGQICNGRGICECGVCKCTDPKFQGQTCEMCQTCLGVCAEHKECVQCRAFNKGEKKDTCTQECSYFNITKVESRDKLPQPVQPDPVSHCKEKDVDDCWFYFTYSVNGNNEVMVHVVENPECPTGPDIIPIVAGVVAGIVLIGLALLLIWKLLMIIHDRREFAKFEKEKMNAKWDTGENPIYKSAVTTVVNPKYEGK
protocolDetails: cell-based or functional assay
Numeric answer only, unit cells assumed.

Example entries begin here.
binder	readoutUnit	Cell Counts (Curve Bottom)
A-15B08 IgG4 Chimera (antibody, V domains shown) VH: QVQLKESGPGLVAPSQSLSITCTISGFSLTSYGVHWVRQPPGKGLEWLVVIWSDGSTTYNSTLKSRLSISKDNSKSQVFFKMNSLQTDDTAMYYCARHYDYDGDWFAYWGQGTLVTVSA VL: QIVLTQSPAIMSASLGERVTMTCTASSRVSSNSLHWYQQKPGSSPKLWIYSTSNLASGVPARFSGSGSGTSYSLTISSMEAEDAATYYCHQYLRSPPTFGGGTKLEIK	cells	4780
A2-7A05 IgG4 Chimera (antibody, V domains shown) VH: QVQLQQPGAELVKPGASVKLSCKASGYTFTIYWINWVKQRPGQGLEWIGKIYPGSISTDYNEKFKSKATLTVDTSSSTAYMQLSSLTSDDSAVYYCAITGTGGLAYWGQGTLVTVSA VL: ENVLTQSPAIMSASLGEKVTMTCRASSSVNYMYWYQQKSDASPKLWIYFTSSLAPGVPGRFSGSGSGNSYSLTISTMEGEDAATYYCQQFTTSPFTFGSGTKLEIK	cells	28800
A-15B08-T62A IgG4 Chimera (antibody, V domains shown) VH: QVQLKESGPGLVAPSQSLSITCTISGFSLTSYGVHWVRQPPGKGLEWLVVIWSDGSTTYNSALKSRLSISKDNSKSQVFFKMNSLQTDDTAMYYCARHYDYDGDWFAYWGQGTLVTVSA VL: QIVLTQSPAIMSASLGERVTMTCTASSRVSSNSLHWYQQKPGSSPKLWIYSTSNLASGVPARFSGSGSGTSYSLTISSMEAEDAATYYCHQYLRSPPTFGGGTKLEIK	cells	6320

Let us examine a further case.
Query block: // Cell Counts (Curve Bottom) lookup, key: C-14D12 IgG4 Chimera (antibody, V domains shown) VH: QVQLKESGPDLVAPSQSLSITCTVSGFSLTDYGVHWVRQPPGKGLEWLVVIWSDGSTTYNSALKSRLSITKDTSKRQVFLKMNSLQTDDTAMYYCARHAPSFIRYGSRYDALDYWGQGTSVTVSS VL: QIVLTQSPAIMSASLGERVTLTCTASSSVTSSFLHWYQQKPGSSPKLWIYSTSNLASGVPARFSGSGSGTSYSLTISSMEAEDAATYYCHQYHRSPPTFGGGTKLEIK
Result block: 8040
